# test description: Caspase-3/7 induction in HepG2 cells by small molecules, qHTS assay (AID 1346978); note: % is set by controls: 0 for no effect and ±100 for the full control effect; nearly all actives have a fitted effect of over 15% in size
# condition description: HepG2 caspase-3/7 activation, Caspase-Glo luminescence, 17 h; series mostly up to 92.4 µM
Inconclusive results are not listed. The source made the active and inactive calls. Calls come from the whole dose curve; as a rule, active = well fitted activation curve with a large enough effect in the repeat runs; inconclusive = weak or mixed curves; inactive = flat fitted curve, though single readings scatter.
reported metric: caspase activation

Solved entries:
{"columns": ["compound", "caspase activation"],
 "data": [
  ["Cc1cc(O)c2c(O)c3c(O)cccc3cc2c1", "inactive"],
  ["CCCCCCCCCCCCCCCCBr", "2.76% [at 19 µM] (inactive)"],
  ["OCCSc1ccccc1", "inactive"],
  ["CCCCC(CC)CNCC(CC)CCCC (stereo not drawn)", "inactive"],
  ["COC(=O)c1cc(S(N)(=O)=O)ccc1OC", "inactive"]
]}

Specify caspase activation for CCCCCCCCCCCC(=O)[O][Sn]([CH2]CCC)([CH2]CCC)[O]C(=O)CCCCCCCCCCC and stop. inactive

Specify caspase activation for CCc1nn(CCCN2CCN(c3cccc(Cl)c3)CC2)c(=O)n1CCOc1ccccc1 and stop. inactive

Specify caspase activation for Cc1ccc(S(=O)(=O)NC2CCCCC2)cc1 and stop. inactive

====

# target system: Progesterone receptor (Homo sapiens)
# test description: qHTS assay to identify small molecule antagonists of the progesterone receptor (PR) signaling pathway (AID 1346795)
# condition description: PR-UAS-bla HEK293T, beta-lactamase FRET ratio, 16 h; series mostly up to 92.4 µM
Inconclusive results are not listed. The source made the active and inactive calls. Calls follow the shape of the dose curve; as a rule, active = well fitted inhibition curve with a large enough effect in the signal ratio in the repeat runs (not every such curve was filed as active); inconclusive = weak or mixed curves; inactive = flat fitted curve, though single readings scatter; the % refers to the signal ratio.
The reply should be one of these categories: active, inactive

Consider the worked cases shown below.
{"columns": ["molecule", "classification"],
 "data": [
  ["CCCOCCOCCO", "inactive"],
  ["CCc1nn(CCCN2CCN(c3cccc(Cl)c3)CC2)c(=O)n1CCOc1ccccc1", "active"],
  ["Nc1c(I)cc(I)c(C(=O)N(CCC(=O)O)c2ccccc2)c1I", "inactive"],
  ["CCCCCCCC/C=C\\CCCCCCCC(=O)OC", "inactive"],
  ["CC(C)(C)C(=O)O", "inactive"]
]}

So what was the verdict on CCC1(C)CC(=O)NC1=O (stereo not drawn) in this test? inactive

So what was the verdict on CC(C)CCCC(=O)O in this test? inactive

So what was the verdict on Fc1c(F)c(F)c(Br)c(F)c1F in this test? inactive

So what was the verdict on COc1cc2c(cc1OC)-c1cc(=Nc3c(C)cc(C)cc3C)n(C)c(=O)n1CC2 in this test? active

So what was the verdict on C=CC(C)(O)CCCC(C)CCCC(C)CCCC(C)C (stereo not drawn) in this test? inactive

So what was the verdict on Cc1oncc1C(=O)Nc1ccc(C(F)(F)F)cc1 in this test? active

So what was the verdict on CO[C@H]1O[C@H](CO)[C@@H](O)[C@H](O)[C@H]1O in this test? inactive

So what was the verdict on COc1cc2[nH]c(=O)[nH]c(=O)c2cc1OC in this test? inactive

====

# test description: qHTS RealTime-Glo MT Cell Viability Assay in HepG2 cells - 40 hour (AID 1224870); note: % is set by controls: 0 for no effect and ±100 for the full control effect; nearly all actives have a fitted effect of over 50% in size
# condition description: RealTime-Glo luminescence; series mostly up to 76.8 µM
Inconclusive results are not listed. Activity calls are given as the source filed them. Calls come from the whole dose curve; as a rule, active = well fitted cell-killing curve with a large enough effect in the repeat runs; inconclusive = weak or mixed curves, or effect the other way; inactive = flat fitted curve, though single readings scatter.
reported metric: Potency

Solved entries:
{"columns": ["smiles text", "Potency"],
 "data": [
  ["CC(=O)N(c1onc(C)c1C)S(=O)(=O)c1ccc(N)cc1", "inactive"],
  ["Cc1ccc(Nc2nccc(N(C)c3ccc4c(C)n(C)nc4c3)n2)cc1S(N)(=O)=O", "inactive"],
  ["C/C=C/C=C/CCCCCCCO", "inactive"],
  ["Fc1c(F)c(F)c(Br)c(F)c1F", "inactive"],
  ["Cc1ccc(S(=O)(=O)NC2CCCCC2)cc1", "inactive"]
]}

Specify Potency for O=C1OCCN1/N=C/c1ccc([N+](=O)[O-])o1 and stop. inactive

Specify Potency for O=S(=O)(c1ccccc1)c1ccc(Cl)cc1 and stop. inactive

Specify Potency for CN(C)C(=O)Nc1ccc(Oc2ccc(Cl)cc2)cc1 and stop. inactive

Measured values drawn from PubChem BioAssay (Tox21) for this set.
